Kindly supply the reported mIL11 - average signal values for the records listed here.
TGT: T1, Mouse IL-11 (mouse, UniProt P47873 22-199, limits assumed)
T1 construct: also called murine IL-11; recombinant murine IL-11
T1 sequence (looked up): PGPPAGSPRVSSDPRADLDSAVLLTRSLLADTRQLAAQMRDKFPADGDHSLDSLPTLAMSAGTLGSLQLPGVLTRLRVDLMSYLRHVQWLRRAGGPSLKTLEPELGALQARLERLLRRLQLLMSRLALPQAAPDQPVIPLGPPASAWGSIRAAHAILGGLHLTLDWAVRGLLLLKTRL
ASSAY_METHOD_TEXT: ELISA
Lab note: record the figure alone, no unit after it.

# input Reported mIL11 - average signal, binder YU100-E06 (antibody) QVQLVESGGGVVQPGRSLRLSCAASGFTFSSYGMHWVRQAPGKGLEWVAVISYDGSNKYYADSVKGRFTISRDNSKNTLYLQMNSLRAEDTAVYYCAKIGATDPLDYWGQGTLVTVSSGSASAPKLEEGEFSEARVQSALTQPASVSGFPEQSITISCTGTSSDVGGYDYVSWYQQHPGKAPKLMIYDVTNRPSGVSNRFSGSKSGNTASLTISGLQPEDEADYYCSSYTSNTTWVFGGGTKLTVLRQPKAAPSVTLFPPSS : ____
# output 0.309

# input Reported mIL11 - average signal, binder YU100-D11 (antibody) QVQLVQSGGGVVQPGRSLRLSCAASGFTFSSYGMHWVRQAPGKGLEWVAVISYDGSNKYYADSVKGRFTISRDNSKNTLYLQMNSLRAEDTAVYYCAKIGATDPLDYWGQGTLVTVSSGSASAPKLEEGEFSEARVQSALTQPRSVSGSPGQSVTISCTGTSSNVGGYNYVSWYQQHPGKAPKLMIYDVSKRPSGVPDRFSGSKSGNTASLTISGLQAEDEANYYCASYAGNYNWVFGGGTKLTVLGQPKAAPSVTLFPPSS : ____
# output 0.475

# input Reported mIL11 - average signal, binder YU112-F05 (antibody) EVQLVQSGGGVVQPGRSLRLSCAASGFTFGSYGMHWVRQAPGKGLEWVAVISYDGSNKYYADSVKGRFTISRDNSKNTLYLQMNSLRAEDTAVYYCAKIGATDPLDYWGQGTLVTVSSGSASAPKLEEGEFSEARVQSALTQPRSVSGSPGQSVTISCTGTSSDVGGYNYVSWYQQHPGKAPKLIIYDVNNRPSGVSNRFSASKSGNTASLTISGLQAEDEADYYCNSYTSGSTWVFGGGTKLTVL : ____
# output 0.601
